- run.description: Methylene blue experiment for H2S release in PBS buffer in presence of cysteine or GSH
- Assay type: physicochemical
- details: PBS buffer pH 7.4; donor 150 μM; 1.5 mM cysteine
measured.parameter: Cys [H2S] at peaking time (µM)

molecule	Cys [H2S] at peaking time / µM
CCCC(=O)SNC(=O)c1ccccc1	111.3
Cc1ccc(C(=O)SNC(=O)c2ccccc2)cc1	93.9
CC(C)C(=O)SNC(=O)c1ccccc1	131.6
CC(C(=O)SNC(=O)c1ccccc1)c1ccccc1 (stereo not shown)	130.4
CC(=O)NC(C(=O)NCc1ccccc1)C(C)(C)SSC(=O)c1ccccc1 (stereo not shown)	149
CCCC(=O)NSC(=O)c1ccccc1	102.8
O=C(NSC(=O)c1ccc(F)cc1)c1ccccc1	143.1
O=C(NSC(=O)c1ccccc1)c1ccccc1 [Compound 2, N-(benzoylthio)benzamide]	143.6
Cc1ccccc1C(=O)SNC(=O)c1ccccc1	85.0
CC(C)(C)C(=O)SNC(=O)c1ccccc1	106.4
